Target: mouse TMEM16A mutant T518A (Mus musculus, UniProt Q8BHY3, T518A)
Construct: expressed in transfected cells; host or cells: HEK293T
Sequence (Q8BHY3 1-960 T518A): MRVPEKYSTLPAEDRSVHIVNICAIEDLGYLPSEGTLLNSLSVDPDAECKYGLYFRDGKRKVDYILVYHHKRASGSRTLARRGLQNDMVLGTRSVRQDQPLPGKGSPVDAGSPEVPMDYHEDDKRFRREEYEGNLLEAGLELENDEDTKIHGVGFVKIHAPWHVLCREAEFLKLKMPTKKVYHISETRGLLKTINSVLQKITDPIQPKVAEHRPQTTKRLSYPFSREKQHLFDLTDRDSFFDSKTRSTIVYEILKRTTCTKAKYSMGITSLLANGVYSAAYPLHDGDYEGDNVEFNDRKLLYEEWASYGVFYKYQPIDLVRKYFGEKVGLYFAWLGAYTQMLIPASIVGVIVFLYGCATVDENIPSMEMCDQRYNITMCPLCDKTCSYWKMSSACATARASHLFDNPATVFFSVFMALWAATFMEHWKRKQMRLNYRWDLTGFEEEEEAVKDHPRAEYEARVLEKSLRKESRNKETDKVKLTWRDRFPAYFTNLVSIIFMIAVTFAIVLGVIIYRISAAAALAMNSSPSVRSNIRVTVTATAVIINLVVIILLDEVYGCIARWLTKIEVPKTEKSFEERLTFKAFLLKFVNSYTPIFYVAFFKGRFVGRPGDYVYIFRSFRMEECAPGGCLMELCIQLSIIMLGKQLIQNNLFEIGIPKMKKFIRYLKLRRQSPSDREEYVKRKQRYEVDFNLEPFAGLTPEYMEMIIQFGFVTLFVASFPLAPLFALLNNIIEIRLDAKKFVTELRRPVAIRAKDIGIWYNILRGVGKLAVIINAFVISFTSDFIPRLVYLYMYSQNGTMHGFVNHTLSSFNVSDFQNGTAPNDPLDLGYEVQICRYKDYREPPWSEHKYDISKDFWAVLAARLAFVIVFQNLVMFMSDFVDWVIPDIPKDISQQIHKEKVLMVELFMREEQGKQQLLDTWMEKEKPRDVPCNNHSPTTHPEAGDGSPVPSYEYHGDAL
Assay: Inside-out patch recording of 1PBC block, mutant T518A
Format: cell-based
Details: 140 mV; 2 µM Ca2+
MEASUREMENT_NAME: pIC50
// field semantics: pIC50 = negative decimal log of concentration (mol/L)

Provide value of pIC50 for this record tested with mouse TMEM16A mutant T518A (Mus musculus, UniProt Q8BHY3, T518A): N#Cc1c(C(F)(F)F)cc(O)n2c1nc1ccccc12
5.51
